- Tested on: target transcript mRNA in A549 cells
- RUN DESCRIPTION: Level of mRNA of target transcript in A549 cells by quantitative RT-PCR (Tables 12 and 13)
- Assay type: cell-based, human
- CONDITION LABEL: 1 nM siRNA, 24 h post-transfection
QUANTITY KIND: mRNA knockdown of transporter gene target transcript, 1 nM

>  <SUBSTANCE>
SEQ ID NO: 4967: siRNA targeting ATP7B (chain 1 AATTCTGGTTAGCAGAAGATAAAGG; chain 2 AAUUCUGGUUAGCAGAAGAUAAAGG; chemistry not given here; one strand in two spellings)

>  <READING>
− (<50% mRNA knockdown)

$$$$
>  <SUBSTANCE>
SEQ ID NO: 4934: siRNA targeting SLC29A2 (ENT2) (chain 1 TGTGAAGACCAACACAAGGCACAGC; chain 2 UGUGAAGACCAACACAAGGCACAGC; chemistry not given here; one strand in two spellings)

>  <READING>
− (<50% mRNA knockdown)

$$$$

----------
- Tested on: target transcript mRNA in A549 cells
- RUN DESCRIPTION: Level of mRNA of target transcript in A549 cells by quantitative RT-PCR (Tables 12 and 13)
- Format: cell-based, human
- CONDITION LABEL: 10 nM siRNA, 24 h post-transfection
QUANTITY KIND: mRNA knockdown of energy and metabolism gene target transcript, 10 nM

>  <SUBSTANCE>
3541 (GAGCCAAGGGTAGGAGCCCTACACTAGG; chemistry not given here) [compound 3541]

>  <READING>
− (<50% mRNA knockdown)

$$$$
>  <SUBSTANCE>
3540 (AGCCAAGGGTAGGAGCCCTACACTAGG; chemistry not given here) [compound 3540]

>  <READING>
− (<50% mRNA knockdown)

$$$$

----------
- System: A549 cells
- RUN DESCRIPTION: 5FU toxicity in A549 cells after TYMS or DHFR knockdown, SYBR Green
- Format: cell-based, human
- CONDITION LABEL: cells transfected with 10 nM siRNA; 5FU continuous for 3 days; read-out: IC50 value of 5FU following TYMS knockdown, A549
QUANTITY KIND: IC50 (nM)

>  <SUBSTANCE>
SEQ ID NO: 4805: non-specific control siRNA (chain 1 GGGAAATGTCTCCTCCCATTGATTT; chain 2 GGGAAAUGUCUCCUCCCAUUGAUUU; chemistry not given here; one strand in two spellings) [reference compound]

>  <QUANTITY KIND>
IC50

>  <READING>
640

$$$$
>  <SUBSTANCE>
SEQ ID NO: 4833: siRNA targeting TYMS (chain 1 AGCAGAGGGAATTCATCTCTCAGGC; chain 2 AGCAGAGGGAAUUCAUCUCUCAGGC; chemistry not given here; one strand in two spellings)

>  <QUANTITY KIND>
IC50

>  <READING>
140

$$$$
>  <SUBSTANCE>
SEQ ID NO: 4835: siRNA targeting TYMS (chain 1 ATTCAGGTAAATATGTGCATCTCCC; chain 2 AUUCAGGUAAAUAUGUGCAUCUCCC; chemistry not given here; one strand in two spellings)

>  <QUANTITY KIND>
IC50

>  <READING>
200

$$$$
>  <SUBSTANCE>
SEQ ID NO: 4834: siRNA targeting TYMS (chain 1 TGTGGATCCCTTGATAAACCACAGC; chain 2 UGUGGAUCCCUUGAUAAACCACAGC; chemistry not given here; one strand in two spellings)

>  <QUANTITY KIND>
IC50

>  <READING>
150

$$$$

----------
- Test system: A549 cells
- RUN DESCRIPTION: Growth inhibition of siRNA-transfected A549 cells, SYBR Green I DNA content
- Format: cell-based, human
- CONDITION LABEL: A549 cells, 10 nM siRNA, DNA content 96 hours after transfection, transporter gene targets
QUANTITY KIND: Growth Inhibition in A549 cells by 10 nM siRNA

>  <SUBSTANCE>
SEQ ID NO: 4947: siRNA targeting ATP2B4 (PMCA4) (chain 1 ATTACGCACAGCCTGATAATCCTGC; chain 2 AUUACGCACAGCCUGAUAAUCCUGC; chemistry not given here; one strand in two spellings)

>  <READING>
− (no growth inhibition)

$$$$
>  <SUBSTANCE>
SEQ ID NO: 4912: siRNA targeting SLC5A6 (SMVT1) (chain 1 ACCAGTGTCTGGAACACATCTGTCC; chain 2 ACCAGUGUCUGGAACACAUCUGUCC; Antisense strand given in DNA and RNA notation, chemistry not given here; one strand in two spellings)

>  <READING>
− (no growth inhibition)

$$$$

----------
- System: target transcript mRNA in A549 cells
- RUN DESCRIPTION: Level of mRNA of target transcript in A549 cells by quantitative RT-PCR (Tables 12 and 13)
- Format: cell-based, human
- CONDITION LABEL: 1 nM siRNA, 24 h post-transfection
QUANTITY KIND: mRNA knockdown of energy and metabolism gene target transcript, 1 nM

>  <SUBSTANCE>
3540 (AGCCAAGGGTAGGAGCCCTACACTAGG; chemistry not given here) [compound 3540]

>  <READING>
− (<50% mRNA knockdown)

$$$$
>  <SUBSTANCE>
1696 (AACGTGAAGCTCCCTGACGCCTA; chemistry not given here) [compound 1696]

>  <READING>
− (<50% mRNA knockdown)

$$$$

----------
- Tested on: A549 cells
- RUN DESCRIPTION: 5FU toxicity in A549 cells after TYMS or DHFR knockdown, SYBR Green
- Format: cell-based, human
- CONDITION LABEL: cells transfected with 1 nM siRNA; 5FU continuous for 3 days; read-out: IC50 value of 5FU following TYMS knockdown, A549
In this section we review reported IC50 values for a set of substances.

>  <SUBSTANCE>
SEQ ID NO: 4835: siRNA targeting TYMS (chain 1 ATTCAGGTAAATATGTGCATCTCCC; chain 2 AUUCAGGUAAAUAUGUGCAUCUCCC; chemistry not given here; one strand in two spellings)

>  <IC50 [nM]>
130

$$$$
>  <SUBSTANCE>
SEQ ID NO: 4805: non-specific control siRNA (chain 1 GGGAAATGTCTCCTCCCATTGATTT; chain 2 GGGAAAUGUCUCCUCCCAUUGAUUU; chemistry not given here; one strand in two spellings) [reference compound]

>  <IC50 [nM]>
670

$$$$
>  <SUBSTANCE>
SEQ ID NO: 4834: siRNA targeting TYMS (chain 1 TGTGGATCCCTTGATAAACCACAGC; chain 2 UGUGGAUCCCUUGAUAAACCACAGC; chemistry not given here; one strand in two spellings)

>  <IC50 [nM]>
210

$$$$
>  <SUBSTANCE>
SEQ ID NO: 4833: siRNA targeting TYMS (chain 1 AGCAGAGGGAATTCATCTCTCAGGC; chain 2 AGCAGAGGGAAUUCAUCUCUCAGGC; chemistry not given here; one strand in two spellings)

>  <IC50 [nM]>
110

$$$$

----------
- Test system: target transcript mRNA in A549 cells
- RUN DESCRIPTION: Level of mRNA of target transcript in A549 cells by quantitative RT-PCR (Tables 12 and 13)
- Type: cell-based, human
- CONDITION LABEL: 1 nM siRNA, 24 h post-transfection
QUANTITY KIND: mRNA knockdown of energy and metabolism gene target transcript, 1 nM

>  <SUBSTANCE>
1694 (CGTGAAGCTCCCTGACGCCTA; chemistry not given here) [compound 1694]

>  <SYSTEM UNDER TEST>
target transcript mRNA in A549 cells

>  <READING>
− (<50% mRNA knockdown)

$$$$
>  <SUBSTANCE>
1693 (ATTTGCCAACAGGATCTTCGGCCCCATCTG; chemistry not given here) [compound 1693]

>  <SYSTEM UNDER TEST>
target transcript mRNA in A549 cells

>  <READING>
− (<50% mRNA knockdown)

$$$$
>  <SUBSTANCE>
1692 (TTTGCCAACAGGATCTTCGGCCCCATCTG; chemistry not given here) [compound 1692]

>  <SYSTEM UNDER TEST>
target transcript mRNA in A549 cells

>  <READING>
− (<50% mRNA knockdown)

$$$$

----------
- System: target transcript mRNA in A549 cells
- RUN DESCRIPTION: Level of mRNA of target transcript in A549 cells by quantitative RT-PCR (Tables 12 and 13)
- Type: cell-based, human
- CONDITION LABEL: 1 nM siRNA, 24 h post-transfection
QUANTITY KIND: mRNA knockdown of energy and metabolism gene target transcript, 1 nM

>  <SUBSTANCE>
3541 (GAGCCAAGGGTAGGAGCCCTACACTAGG; chemistry not given here) [compound 3541]

>  <SYSTEM UNDER TEST>
target transcript mRNA in A549 cells

>  <READING>
− (<50% mRNA knockdown)

$$$$
>  <SUBSTANCE>
3551 (AAGGCAACTACCGCGAGCTGCGCTGGTT; chemistry not given here) [compound 3551]

>  <SYSTEM UNDER TEST>
target transcript mRNA in A549 cells

>  <READING>
− (<50% mRNA knockdown)

$$$$
>  <SUBSTANCE>
1686 (AACAGGATCTTCGGCCCCATCTG; chemistry not given here) [compound 1686]

>  <SYSTEM UNDER TEST>
target transcript mRNA in A549 cells

>  <READING>
− (<50% mRNA knockdown)

$$$$
